B1: Ribonuclease HI, P0A7Y4 (parent)
chain: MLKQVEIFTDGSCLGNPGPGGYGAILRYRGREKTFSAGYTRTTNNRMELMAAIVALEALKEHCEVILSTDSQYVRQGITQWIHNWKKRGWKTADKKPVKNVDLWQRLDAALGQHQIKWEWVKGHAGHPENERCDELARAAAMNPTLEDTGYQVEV

Variants of: B1
experimental conditions: Escherichia coli (strain K12); pH 3; 50.1 °C; Thermal; CD; glycine-HCl 10 mM; NaCl 0.1 M; reversible: yes; structure 2RN2; whole UniProt chain shown
Record condition met whenever ddG of mutation (higher = less stable) is at -0.09 kcal/mol or higher; record condition not met when lower.

The following variants have reported results that may help.
[
  {
    "variant label": "R41C",
    "group": "condition not met"
  },
  {
    "variant label": "G23A",
    "group": "condition not met"
  },
  {
    "variant label": "Q76L",
    "group": "condition not met"
  },
  {
    "variant label": "Q80L K117R",
    "group": "condition met"
  },
  {
    "variant label": "H62P T40A K122R",
    "group": "condition not met"
  }
]

Does ddG of mutation (higher = less stable) meet or surpass -0.09 kcal/mol for `A24V` ?
condition not met

Now consider `H62P` .
condition not met

Now consider `E135K` .
condition met

Now consider E119V K60R .
condition met

Now consider `A52V` .
condition not met

Now consider `K95N` .
condition not met
